Target: T1, human insulin receptor (HIR) (human, UniProt P06213-2 28-1370, limits assumed)
T1 construct: Also used for the WGA-purified recombinant human insulin receptor of the kinase assay
T1 sequence (P06213 other isoform, or with tags, fused parts or gaps limits assumed): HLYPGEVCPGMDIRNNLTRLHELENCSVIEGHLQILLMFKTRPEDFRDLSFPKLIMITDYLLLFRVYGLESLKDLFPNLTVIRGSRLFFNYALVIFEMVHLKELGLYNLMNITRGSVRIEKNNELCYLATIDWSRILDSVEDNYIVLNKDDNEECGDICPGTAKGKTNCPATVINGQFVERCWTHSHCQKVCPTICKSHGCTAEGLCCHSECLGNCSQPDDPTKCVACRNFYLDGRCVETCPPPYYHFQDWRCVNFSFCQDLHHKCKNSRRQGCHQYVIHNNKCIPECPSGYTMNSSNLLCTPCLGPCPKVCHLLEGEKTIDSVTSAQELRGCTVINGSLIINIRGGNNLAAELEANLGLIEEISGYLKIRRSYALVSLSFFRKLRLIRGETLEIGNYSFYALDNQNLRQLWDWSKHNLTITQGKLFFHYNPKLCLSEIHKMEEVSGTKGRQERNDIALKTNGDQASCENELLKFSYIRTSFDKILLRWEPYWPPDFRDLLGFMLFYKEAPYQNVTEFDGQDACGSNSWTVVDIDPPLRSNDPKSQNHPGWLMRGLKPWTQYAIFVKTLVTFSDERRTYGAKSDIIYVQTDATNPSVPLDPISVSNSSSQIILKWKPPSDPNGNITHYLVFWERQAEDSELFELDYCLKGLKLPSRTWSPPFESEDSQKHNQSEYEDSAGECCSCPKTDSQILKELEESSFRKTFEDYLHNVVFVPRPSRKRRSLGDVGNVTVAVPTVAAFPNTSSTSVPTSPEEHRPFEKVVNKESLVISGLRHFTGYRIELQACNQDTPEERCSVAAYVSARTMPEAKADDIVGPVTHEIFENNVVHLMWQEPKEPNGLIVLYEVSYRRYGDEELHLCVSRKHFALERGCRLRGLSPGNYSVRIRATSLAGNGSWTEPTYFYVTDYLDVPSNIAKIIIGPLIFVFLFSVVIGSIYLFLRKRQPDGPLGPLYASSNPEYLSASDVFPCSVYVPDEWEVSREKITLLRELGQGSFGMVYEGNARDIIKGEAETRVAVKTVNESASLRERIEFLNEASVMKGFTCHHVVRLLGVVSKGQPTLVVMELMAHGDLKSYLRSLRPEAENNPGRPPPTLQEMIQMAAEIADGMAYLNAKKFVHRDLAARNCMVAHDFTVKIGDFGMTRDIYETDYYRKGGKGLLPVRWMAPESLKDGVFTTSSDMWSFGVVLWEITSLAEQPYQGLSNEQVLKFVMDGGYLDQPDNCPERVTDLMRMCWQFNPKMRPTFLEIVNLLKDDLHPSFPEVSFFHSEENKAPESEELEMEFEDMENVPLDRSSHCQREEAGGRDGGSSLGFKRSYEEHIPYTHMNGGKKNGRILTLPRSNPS
Assay: radio-receptor assay, label 125I-insulin, HIR
RECORDED_ENDPOINT: IC50
// return the numeric value with its unit appended

Query string: # get_value(readout='IC50', item= GSLDESFYDWFERQLGKK (also called S371) [RP9] )
Result string: 44 nM
